assay: soluble fraction after stress (log2 fold change); higher = more stays soluble; pooled small domains, quantitative proteomics; conditions: stress: 50 degC

residue.sequence	soluble fraction (log2)
HMRDISTDTSAWTFQDIKRYYDPQDLLTEKQVGQALSLIKGRNLNPLLNEVYIVAYKKKNGGAEFSLIV	-0.28
HMKAFTKKELQDLVLNIFRASPTTNYNYKQLYKLIRGKDPEIKTLIIAVLLGLEKNGSILQMRPGKYKFS	0.593
HMKPSNRSYPTALRMEVIGIIRERYADFGPTLAGEKLAELHGIHLGRETIRQWMMAAGLWKDRR	-0.825
HMFDDEELDTFAGRQSDSYDQQEVEQFSDVLHTMRQDEVQAWWRSLTLRGISLPDELKDEVIML	-0.538
HMKKEDFLEILRDYLKKGFSEDEVMDILRDYEEYFVDGIIEGKSEIEIIQSLGSPKEIANELLAES	-0.202
HMDLTKLFDHDSEYGKSYVFGKITDEMIARAEQTLGYRMPASYIELLKVQNGGMISDELDESWLTTIYGIG	-0.24
HMSKPVFQTHSVRSADSATVFDVLQTLLAGTPDARIAIDPKTNAIVAWARPETQEVIAKSIMEMEG	0.0132
HMKSKNILLGEYKGKEVHVGEGKYGPFILYDKKFKSIGAYLTENSLMLKDLTIEDYSKIMKFTENSNSKS	-0.651
HMDLPDTLSMPNALKVLEDNGFPTSKAKLYKMTSQEQIPFMKYGNKLVFSRKALIEWAHKQLV	-1.1
HMQISSSEVLEKVVDEILSANPKSIEDYKNGKLQAAGFLMGQVMKATKGQANPAVAKELIEAKLKD	0.419
HMVDDRPVTGTTLIREWQGRAYEVIVQAGHFEFQGQRYQSLSAIAKVITGTVWNGWAFFGLR	-0.524
HMKHEFSEEWLDWIKSNIADGQNKNGLFKVLLNHGYAYDAVREVMQYEPTVPLDELVDPLRA	-0.139
HMKGEKVTKIELSNFIKFLINDLENKGFFNPPEKKDSMIDNIYSIYNKMTLTKKELNMLWGMHKKLK	-1.44
HMQSVPELDQQFKIAIENNDFIKLAQLKEQGYHPSKEVMQSLSNTTPNNTIIAVQKIFGLKA	0.231
HMTYSAWIEKAYSELEKKGITEAELSDALDKRGINLEDLKLMGPDEAVKYQSEVEGVVLELSKSKE	-0.0868
HMGAVPKNYFPAVEKGLQDSVQKGLLAGYPVVGVKAILYDGSYHPVDSSEMAFKTATIQAFKKGFMEA	0.2
HMSIYDAPIEDLKFSTRIFNSLKRADIHTVADLIAHSRDDLMKVRNLGATSLDELIEKLGTHGLQLADP	-0.254

###

experiment: soluble fraction after stress (log2 fold change); higher = more stays soluble; pooled small domains, quantitative proteomics; settings: stress: 50 degC
parameter.measured: soluble fraction (log2)

residue.sequence	meas.value
HMNMSVGAALRRRRNELGMTLRELADEAELTSGFLSQVENDRVSPSLKSLGRIAEVLRIPLFQLLS	-1.29
HMKESRFDYDAVLLYSDKDSITEVKDAVQHLTKEFGSVFTTKKIPEKATFGKLFRIEKGEVNIIEDN	-0.0248
HMAEVGDFTLAELIKVLFNEAGVLKAPVELRNDNTGGLQYRVGAYTDSETGWETIASIADLKGA	-0.436
HMKFTSEKDISLLELVKAKMGFVSNTKARNVIKIGQIMVSGKVIKIPSTLIKPGTEVELARRV	-1.66
HMAVQAESDIIKRAALLRNLGNTSMQLKNIDQAIDFYKQGIKLHPEDAELKYNLSQALRQKSQSNN	0.0399
HMNDGTIRVGTNVTIKPSAKRWATGQNIYYGVKGKTYKVIQMNGNRLLLDKVISWINKGDVYVPGS	-0.501
HMREVTVGSAVRLKKGAKTYSGGSLASFVYERNHQVTQLSGDRAVISFKGTVVAAVHKDDLIL	-0.916
HMHGTIHSAAYGGDIEAVKKFLAAGADVNANGGGRTPLDLAIQVKNTEIADLLRKHGGKTGDELKA	0.0271

###

assay: soluble fraction after stress (log2 fold change); higher = more stays soluble; pooled small domains, quantitative proteomics; details: stress: 50 degC
Would you please tag the item TRUE when its soluble fraction (log2) is -0.3 or above, and FALSE when it is below?

residue.sequence	cat
HMGDAVSRAYFALADDLLKGELTETVSEVLIRTRYELTSAQLQAVLHRIAQEGWAHKKPGYGWEFSAMLT	FALSE
HMNAKVVAPIPGTVLSIDIKVGDVIKIGDRLLVLEAMKMENNIASEKSGTVTAVHVKVGQQVLQNELMIEL	FALSE
HMQNVFARKNLTSVSVDKLGEEEILLFKQSFESKNLTSSEALRDLSKKGMSEAELRKLKVRLTQL	TRUE
HMGPNSVPDLRGKSLRQAMKMVNDLELKAIFEGEGIVVGQVPAPGKPVPETKILKITLSLEPY	TRUE
HMDVPNLVGEEIKDVRRTLRHFQLEVIGEGSKIVSQVPKHGQRLPENTTIRVYLN	TRUE
HMEGDKEIPNVIGKSINDAKKILEQAGLKLGEVKKVNDSSVAKNVVLSTNPNAGTKVSAGDAVSITVAEG	TRUE
HMTRAETPMAFIRAMVEAYTERGLDPNQALRKAQITPSQLKSTNARVTTLQMEWMSETAMREL	TRUE

###

Here, each record is paired with measured soluble fraction (log2) data.
assay: soluble fraction after stress (log2 fold change); higher = more stays soluble; pooled small domains, quantitative proteomics; details: stress: 50 degC
parameter.measured: soluble fraction (log2)

residue.sequence	meas.value
HMISKRFQIDEDNSNKRIDIFLTQSLDSISRGIVQQLILENKVEVNGGPVKRNYLIKIGDVIDVKIDL	-0.939
HMFELDELDLVILKNLANGLSKKQIRVKLKKMDLRPNSESAIDKRVSKLFDEFGAKNSTELVAKLIREGL	-2.55
HMVVSDSAEIDKIVQDVIAANPKAIEDFKSGKTNVTGWLMGQVMKLSHGKANPKQATEILNKYLSK	0.354
HMEGTEILVNIRKGMTKEEIASLLVSKGLVEDKNTFLVQTALYTSDRYPIQPGSYTLNTAQTPEEMLAVMT	0.0128
HMYNPAYDAEIKVILELARHGYWEEARERADELLKAAPDDTGVKRIQTWVRQQEQRMREQAIEDSIRA	-0.0287
HMAEPYDEDKVMEHLYIKGKDVVIAHLKHLKEHNEHVWLKKGVEWMQKNQDRLGFDMMEVIYVVHNH	-0.0166
HMGSQLYTLEVEADEKISLIENNPLLIQKIYLKDNNLFSYKIASSSKTEIASIEKELEKNPSIKRLETA	-0.181
HMGYQLSLEAQSQLKALGLTSEYITRILDEADNRQPIPGTSRTVYSLNGYQVEFSHSDQQVIRIARG	0.0139

###

assay: soluble fraction after stress (log2 fold change); higher = more stays soluble; pooled small domains, quantitative proteomics; conditions: stress: 50 degC
Would you please tag the item TRUE when its soluble fraction (log2) is -0.9 or above, and FALSE when it is below?

residue.sequence	cat
HMAFKDDDVQKAYDRYMDRYGELSVLYSDNGLKVDDDLFYKNNIPPNGKFTKEFFDELYELVNMEFINNY	TRUE
HMQYDSYTVEEPAKLLDWLLAHLRQSRTKIKATLQGHGIKVNGKTVTQFDYPLEPGMKIRVSLTK	TRUE
HMLGERIRTLRKEIGMSVTELARRVKTSPSHISEIERGEKMPSLNLLVKIAKELKTSIDYLTGLVG	TRUE
HMDGTAKVAHMLVNELETFNRLKKHEIAYMLHIQPETLSRILNKLTRNGTIEIEKNSVVILNIQELKEIY	FALSE
HMSDDVELLGRLSDREVSVLQYLSQGYSNKQISEQMFISNKTVSTYKARLLLKLNAGSLVDLIEFAKRNTL	FALSE
HMFSLDMDRLVRPGFMASGNVTFSDGVTGKWALDQMGRLALETAQKGYQPSPADVQAFQRELQQQLQRQG	TRUE
HMDLDSGVAVLRTLMSQHNLQTDDFQNEIGGKSMVSMILNGTRKLSKNHIQALSGRFNLSPALFF	FALSE
HMTKPLHELLSQREFQVFTQLAAGRSVGEIAQQLSLSSNTVSTYRARILEKTGTRNDVELALYAIRR	FALSE
HMGPPLISLDDGLAKGFGVGVGDTLTINILGRRITATIASLREIDWQSLRFDFAVVLSPGVLEGA	TRUE
HMEEGKVKRMAMDMVDAFYDKVSAMVDDNNDLGRSVVDAWDDEEENPPEYMLDDETRAILVNAGKIEPE	TRUE
HMGNPSGLPLPRFASTRSEPINVRVGPGQKYDIAWTYLKSGIPVEIIQEFDTWRKIRDFDGAEGWIHQNLL	FALSE
HMGMESFWNRVANLLNTSTVVELAQILDVKRSTLSSWIHSDRRPPMEVLLKITRLTGVDIHRLE	FALSE
HMDATIGGFKITDSAIYSGVKNNVNAGVRGTYIDKDGQIAFGDSNSYLKYYKDTDGKWKLEVSASSVKF	TRUE
HMLLREKLESVLPFISVSALAKTYFKRSPQWFYQRLNGSIVNGKPIRFNDAELKTLAGALTDIGKKISQAA	TRUE
HMAQLSDMLTYLRKRKGLSQQELANTLKISRSAIGMYETGKREPDLETLEVFADFYNVDMNTLTGKA	TRUE
HMNFSRQREIIYEQVRNFPVHPTAEEVYRALKNDNPNLSLGTVYRNLNQLSEAGMLLKIPIADGSDRFDGR	TRUE
HMSKQIEVPDVTDMTVSDAIDVLQDKGFVVSDEQKEVASSEIEEGRVVRTSPAVGSKRKDGTVVTLYVSI	TRUE
